# assay.protocol: Appearance of formulation (state at 25° C.)
# Format: physicochemical
# condition.info: 25° C.; components (A) and (B) at the compounding molar ratio shown
# Experimental: Formulations 1 to 427 shown in Tables 1A to 1D were prepared by the above-described method using the components (A) and (B) at the compounding molar ratios shown in the tables, and their states at 25° C. were observed.
readout.name: state at 25° C.

1) N[C@@H](CO)C(=O)O.O=C(O)CCCCC(=O)O [Formulation 245]
Solid
2) CC(O)C(=O)O.N[C@@H](CO)C(=O)O [Formulation 244]
Solid
3) N[C@@H](CCC(=O)O)C(=O)O.N[C@@H](CO)C(=O)O [Formulation 247]
Solid

* * *

# assay.protocol: Appearance of formulation (state at 25° C.)
# Format: physicochemical
# condition.info: 25° C.; components (A) and (B) at the compounding molar ratio shown
readout.name: state at 25° C.

Examples with answers:
1) C[C@H](N)C(=O)O.O=C(O)CC(O)(CC(=O)O)C(=O)O
Solid
2) NCCCC[C@H](N)C(=O)O.O=C(O)c1ccccc1
Solid
3) CC(C)[C@H](N)C(=O)O.O=C(O)C(O)C(O)C(=O)O (stereo not drawn)
Solid
4) NCCCC[C@H](N)C(=O)O.O=C(O)CCCCC(=O)O.O=C(O)CCCCC(=O)O
Solid
5) CCC(=O)O.NCC(=O)O
Solid
6) NCCCC[C@H](N)C(=O)O.O=C1O[C@H]([C@@H](O)CO)C(O)=C1O.O=C1O[C@H]([C@@H](O)CO)C(O)=C1O
Solid

[in] // query state at 25° C. value for entry "N=C(N)NCCC[C@H](N)C(=O)O.O=C(O)c1ccccc1.O=C(O)c1ccccc1"
[out] Solid

[in] Try this compound too: "CCCCC/C=C\C/C=C\CCCCCCCC(=O)O.NCC(=O)O"
[out] Solid

[in] Try this compound too: "CC(C)C[C@H](N)C(=O)O.CCCC(=O)O"
[out] Solid

* * *

# assay.protocol: Appearance of formulation (state at 25° C.)
# Type: physicochemical
# condition.info: 25° C.
readout.name: state at 25° C.

Examples with answers:
1) CC(O)C(=O)[O-].[K+] (stereo not drawn)
Solid
2) CCO
Liquid
3) Cl.O=C(O)[C@@H]1CCCN1
Solid
4) CCCC[N+](CCCC)(CCCC)CCCC.[Br-]
Solid
5) CCCCn1cc[n+](C)c1.F[B-](F)(F)F
Solid

Field: next compound
[in] // query state at 25° C. value for entry "O"
[out] Liquid

* * *

# assay.protocol: Appearance of formulation (state at 25° C.)
# Format: physicochemical
# condition.info: 25° C.; components (A) and (B) at the compounding molar ratio shown
readout.name: state at 25° C.

1. CC(=O)O.C[C@H](N)C(=O)O [Formulation 148]
Solid
2. CCCCCC(=O)O.NCCCC[C@H](N)C(=O)O [Formulation 4]
Solid
3. NCCCC[C@H](N)C(=O)O.O=CO [Formulation 1]
Solid
4. C[C@@H](O)[C@H](N)C(=O)O.O=C1O[C@H]([C@H](O)CO)C(O)=C1O [Formulation 271]
Solid
5. N=C(N)NCCC[C@H](N)C(=O)O.O=C(O)CC(O)(CC(=O)O)C(=O)O [Formulation 58]
Liquid
6. C[C@H](N)C(=O)O.O=C1O[C@H]([C@H](O)CO)C(O)=C1O [Formulation 166]
Solid
7. CCCCCCCC/C=C\CCCCCCCC(=O)O.NCC(=O)O [Formulation 133]
Solid
8. C[C@H](N)C(=O)O.O=C(O)c1ccccc1 [Formulation 164]
Solid

Field: next compound
[in] // query state at 25° C. value for entry CCCCCCCC/C=C\CCCCCCCC(=O)O.CCCCCCCC/C=C\CCCCCCCC(=O)O.N=C(N)NCCC[C@H](N)C(=O)O [Formulation 70]
[out] Liquid

* * *

# assay.protocol: Water retention evaluation (moisture reduction rate)
# Assay type: physicochemical
# condition.info: 80 wt. % aqueous solution, 24 hours at 35° C. and 25% RH; calculated from A and B
Reported Moisture eduction rate values for a set of compounds
Provide the reading as a plain figure in %.

Examples with answers:
1. NCC(=O)O.O=C(O)CC(O)(CC(=O)O)C(=O)O
32.2
2. N[C@@H](Cc1c[nH]cn1)C(=O)O.O=C(O)[C@H](O)[C@@H](O)[C@H](O)[C@H](O)CO
20.4
3. CC(O)C(=O)O.N=C(N)NCCC[C@H](N)C(=O)O
24.3
4. NCCCC[C@H](N)C(=O)O.O=C(O)[C@H](O)[C@@H](O)[C@H](O)[C@H](O)CO
22.9
5. NCCCC[C@H](N)C(=O)O.O=C(O)[C@H](O)[C@@H](O)[C@H](O)[C@H](O)CO.O=C(O)[C@H](O)[C@@H](O)[C@H](O)[C@H](O)CO
42.7

[in] // query Moisture eduction rate value for entry "N[C@@H](CO)C(=O)O.O=C(O)[C@H](O)[C@@H](O)[C@H](O)[C@H](O)CO"
[out] 41.6

[in] Try this compound too: "NCCCC[C@H](N)C(=O)O.NCCCC[C@H](N)C(=O)O.NCCCC[C@H](N)C(=O)O.O=C(O)CC(O)(CC(=O)O)C(=O)O.O=C(O)CC(O)(CC(=O)O)C(=O)O"
[out] 22.4

[in] Try this compound too: "CCCC[N+](CCCC)(CCCC)CCCC.[Br-]"
[out] 70.0

[in] Try this compound too: "NCCCC(=O)O.O=C(O)[C@H](O)[C@@H](O)[C@H](O)[C@H](O)CO"
[out] 36.7

[in] Try this compound too: "OCC(O)CO"
[out] 89.7

[in] Try this compound too: "N=C(N)NCCC[C@H](N)C(=O)O.O=C(O)CC(O)(CC(=O)O)C(=O)O"
[out] 21.8

[in] Try this compound too: "CCCCn1cc[n+](C)c1.F[B-](F)(F)F"
[out] 71.5

[in] Try this compound too: "Cl.NCCCC[C@H](N)C(=O)O"
[out] 68.2

[in] Try this compound too: "CCCCCC(=O)O.NCCCC[C@H](N)C(=O)O"
[out] 60.2

[in] Try this compound too: CC(O)C(=O)[O-].[K+] (stereo not shown)
[out] 87.5

[in] Try this compound too: "N=C(N)NCCC[C@H](N)C(=O)O.O=C(O)[C@H](O)[C@@H](O)[C@H](O)[C@H](O)CO"
[out] 23.7

* * *

# assay.protocol: Water retention evaluation (moisture reduction rate)
# Assay type: physicochemical
# condition.info: left until the moisture content remained unchanged; based on final moisture content
readout.name: Presence or absence of hydrates

Examples with answers:
1. N=C(N)NCCC[C@H](N)C(=O)O.O=C(O)CC(O)(CC(=O)O)C(=O)O
Present
2. CCCCCC(=O)O.NCCCC[C@H](N)C(=O)O
Absent
3. Cl.NCCCC[C@H](N)C(=O)O
Absent
4. CCCC[N+](CCCC)(CCCC)CCCC.[Br-]
Absent
5. CC(O)C(=O)O.N=C(N)NCCC[C@H](N)C(=O)O
Present
6. OCC(O)CO
Absent

[in] // query Presence or absence of hydrates value for entry "N[C@@H](Cc1c[nH]cn1)C(=O)O.O=C(O)[C@H](O)[C@@H](O)[C@H](O)[C@H](O)CO"
[out] Present

[in] Try this compound too: "NCCCC[C@H](N)C(=O)O.O=C(O)[C@H](O)[C@@H](O)[C@H](O)[C@H](O)CO"
[out] Present

* * *

# assay.protocol: Appearance of formulation (state at 25° C.)
# Format: physicochemical
# condition.info: Tables 2A/2B; formulation at the compounding molar ratio listed
readout.name: state at 25° C.

1. N=C(N)NCCC[C@H](N)C(=O)O.O=C(O)[C@H](O)[C@@H](O)[C@H](O)[C@H](O)CO [Formulation 51]
Liquid
2. CC(O)C(=O)O.N=C(N)NCCC[C@H](N)C(=O)O [Formulation 52]
Liquid
3. Cl.NCCCC[C@H](N)C(=O)O [Formulation 429]
Solid
4. NCCCC[C@H](N)C(=O)O.O=C(O)[C@H](O)[C@@H](O)[C@H](O)[C@H](O)CO.O=C(O)[C@H](O)[C@@H](O)[C@H](O)[C@H](O)CO [Formulation 30]
Liquid

* * *

# assay.protocol: Appearance of formulation (state at 25° C.)
# Format: physicochemical
# condition.info: Tables 2A/2B; formulation at the compounding molar ratio listed
readout.name: state at 25° C.

1. CCCC[N+](CCCC)(CCCC)CCCC.[Br-]
Solid
2. N=C(N)NCCC[C@H](N)C(=O)O.O=C(O)CC(O)(CC(=O)O)C(=O)O
Liquid
3. NCCCC(=O)O.O=C(O)[C@H](O)[C@@H](O)[C@H](O)[C@H](O)CO
Liquid
4. NCCCC[C@H](N)C(=O)O.NCCCC[C@H](N)C(=O)O.NCCCC[C@H](N)C(=O)O.O=C(O)CC(O)(CC(=O)O)C(=O)O.O=C(O)CC(O)(CC(=O)O)C(=O)O
Liquid
5. NCC(=O)O.O=C(O)CC(O)(CC(=O)O)C(=O)O
Liquid
6. NCCCC[C@H](N)C(=O)O.O=C(O)[C@H](O)[C@@H](O)[C@H](O)[C@H](O)CO
Liquid
7. CCCCCC(=O)O.NCCCC[C@H](N)C(=O)O
Solid

Field: next compound
[in] // query state at 25° C. value for entry CC(O)C(=O)[O-].[K+] (centres unmarked)
[out] Solid
